- Tested on: BJ
- assay: cytotoxicity toward BJ-TERT-LT-ST fibroblasts, dose response, cell-based, RAS-independent, luminescence (AID 1935);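 also: BJ fibroblasts immortalized with TERT plus LT and ST oncogenes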
- Format: functional
- setup conditions: Homo sapiens
The source made the active and inactive calls. Rule as the data show it: actives have a measured EC50 and inactives only a lower limit.
measurement kind: EC50

molecule: CCN1C(=O)C(=Cc2cccc(OC)c2Oc2ccc([N+](=O)[O-])cc2[N+](=O)[O-])SC1=S
EC50: 3.5 µM (active)
--
molecule: COc1ccc(Nc2cc(C)nc(-n3nc(C)cc3C)n2)cc1
EC50: 0.388 µM (inconclusive)
--
molecule: CC(C)OC(=O)c1ccccc1C(=O)c1ccc(N)c([N+](=O)[O-])c1
EC50: > 150 µM (not active)
--
molecule: Cc1ccc(C(C)C)c(OCc2ccc(C(=O)N/N=C/c3cccc(O)c3O)cc2)c1
EC50: 7.23 µM (active)

Consider now this further molecule.
Ask | EC50 for CCOc1ccccc1C1CC(=O)Nc2cc(C)c(C)cc21 (stereo not given) ?
Reply | 23.5 µM (active)
